Data provenance: patent US9796711B2

target: ΔF508-CFTR (Homo sapiens, UniProt P13569, DEL508-508); construct: host or cells: CFBE41o-, doxycycline-inducible; assay: CFTR cell surface levels using HRP-tagged ΔF508-CFTR expressing CFBE cells, in the presence of a co-corrector; format: cell-based; conditions: HRP-tagged ΔF508-CFTR expressing CFBE cells, in the presence of 3 μM co-corrector; read-out: EC50
Sequence (P13569 with tags, fused parts or gaps DEL508-508): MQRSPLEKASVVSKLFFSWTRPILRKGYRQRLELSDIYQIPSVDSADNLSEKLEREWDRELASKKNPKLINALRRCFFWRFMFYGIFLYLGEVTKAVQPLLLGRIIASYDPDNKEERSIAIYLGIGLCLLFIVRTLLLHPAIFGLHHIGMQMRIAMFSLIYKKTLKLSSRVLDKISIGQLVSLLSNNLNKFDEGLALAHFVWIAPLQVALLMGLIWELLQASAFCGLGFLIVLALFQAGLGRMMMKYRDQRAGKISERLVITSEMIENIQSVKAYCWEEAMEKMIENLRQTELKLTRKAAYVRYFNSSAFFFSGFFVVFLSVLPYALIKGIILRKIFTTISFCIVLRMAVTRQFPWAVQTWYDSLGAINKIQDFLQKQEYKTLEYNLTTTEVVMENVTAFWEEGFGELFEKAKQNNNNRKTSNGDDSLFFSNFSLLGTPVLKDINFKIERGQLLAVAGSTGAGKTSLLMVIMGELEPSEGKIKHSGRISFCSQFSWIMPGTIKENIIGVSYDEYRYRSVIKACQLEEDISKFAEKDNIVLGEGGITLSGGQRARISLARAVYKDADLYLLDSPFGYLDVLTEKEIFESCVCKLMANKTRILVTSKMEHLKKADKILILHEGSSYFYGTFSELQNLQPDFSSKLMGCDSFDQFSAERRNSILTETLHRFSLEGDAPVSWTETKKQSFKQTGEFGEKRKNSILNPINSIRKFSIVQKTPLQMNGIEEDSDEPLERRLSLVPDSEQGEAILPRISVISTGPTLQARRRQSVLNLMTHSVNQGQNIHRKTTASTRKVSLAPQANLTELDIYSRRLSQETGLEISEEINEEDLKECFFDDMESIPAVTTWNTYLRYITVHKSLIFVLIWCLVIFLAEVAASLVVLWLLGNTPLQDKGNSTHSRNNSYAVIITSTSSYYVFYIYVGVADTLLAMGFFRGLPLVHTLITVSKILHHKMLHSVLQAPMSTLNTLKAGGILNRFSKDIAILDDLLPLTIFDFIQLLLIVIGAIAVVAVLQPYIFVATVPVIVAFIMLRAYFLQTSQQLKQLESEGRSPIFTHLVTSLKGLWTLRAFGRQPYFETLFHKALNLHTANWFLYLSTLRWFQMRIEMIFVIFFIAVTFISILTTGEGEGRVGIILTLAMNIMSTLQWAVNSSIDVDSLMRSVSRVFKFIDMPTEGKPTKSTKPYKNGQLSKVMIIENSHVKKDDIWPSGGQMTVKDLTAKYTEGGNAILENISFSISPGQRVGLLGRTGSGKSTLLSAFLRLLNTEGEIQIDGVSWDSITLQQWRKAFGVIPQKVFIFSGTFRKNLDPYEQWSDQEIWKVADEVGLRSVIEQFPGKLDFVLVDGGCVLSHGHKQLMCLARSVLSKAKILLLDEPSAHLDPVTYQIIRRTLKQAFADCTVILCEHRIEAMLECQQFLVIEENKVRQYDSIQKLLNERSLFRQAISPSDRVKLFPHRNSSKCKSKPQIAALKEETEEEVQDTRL
pEC50: −log10 of the molar value.
# label = yes if pEC50 >= 6 else no

| compound | test-system | class |
| --- | --- | --- |
| Cc1nn(-c2ccccc2)c2nc(C(=O)O)cc(OC3CCN(C)CC3)c12 | ΔF508-CFTR (Homo sapiens, UniProt P13569, DEL508-508) | no |
| CC1(C)CN(C2CCN(c3cc(C(=O)O)nc4c3c(C3CCC3)nn4-c3ccc(F)cc3)CC2)CCO1 | ΔF508-CFTR (Homo sapiens, UniProt P13569, DEL508-508) | yes |
| O=C(O)c1cc(N2CCN3CCC[C@@H]3C2)c2c(C3CCC3)nn(-c3ccccc3)c2n1 | ΔF508-CFTR (Homo sapiens, UniProt P13569, DEL508-508) | yes |
| Cc1cc(-n2nc(C3CCC3)c3c(N4CCC(N5CCOCC5)CC4)cc(C(=O)O)nc32)ccc1F | ΔF508-CFTR (Homo sapiens, UniProt P13569, DEL508-508) | yes |
| Cc1nn(-c2ccccc2)c2nc(C(=O)O)cc(N3CCN4C(=O)OCC4C3)c12 (stereo not shown) | ΔF508-CFTR (Homo sapiens, UniProt P13569, DEL508-508) | no |
| O=C(O)c1cc(N2CCC(CN3CC4CC4C3)CC2)c2c(C3CCC3)nn(-c3ccccc3)c2n1 (stereo not shown) | ΔF508-CFTR (Homo sapiens, UniProt P13569, DEL508-508) | yes |
| CC1(O)CN(c2cc(C(=O)O)nc3c2c(C2CCC2)nn3-c2ccccc2)C1 | ΔF508-CFTR (Homo sapiens, UniProt P13569, DEL508-508) | no |
| CN(C)CCOCCOc1cc(C(=O)O)nc2c1c(C1CCC1)nn2-c1ccccc1 | ΔF508-CFTR (Homo sapiens, UniProt P13569, DEL508-508) | no |
| COC1CCCN(c2cc(C(=O)O)nc3c2c(C(C)C)nn3-c2cccc(C)c2)C1 (stereo not shown) | ΔF508-CFTR (Homo sapiens, UniProt P13569, DEL508-508) | yes |
| Cc1nn(-c2ccccc2)c2nc(C(=O)O)cc(-c3ccc(N4CC(N(C)C)C4)cc3)c12 | ΔF508-CFTR (Homo sapiens, UniProt P13569, DEL508-508) | no |
| N#CC1CCN(c2ccc(-c3cc(C(=O)O)nc4c3c(C3CC(F)(F)C3)nn4-c3ccccc3)cn2)CC1 | ΔF508-CFTR (Homo sapiens, UniProt P13569, DEL508-508) | yes |
| Cc1nn(-c2ccccc2)c2nc(C(=O)O)cc(N3CCC4(CCNC4=O)C3)c12 (stereo not shown) | ΔF508-CFTR (Homo sapiens, UniProt P13569, DEL508-508) | no |
| CC(C)c1nn(-c2ccc(F)cc2)c2nc(C(=O)O)cc(OCCCN(C)C)c12 | ΔF508-CFTR (Homo sapiens, UniProt P13569, DEL508-508) | no |
| CN(C)C[C@@H](F)C1CCN(c2cc(C(=O)O)nc3c2c(C2CCC2)nn3-c2ccccc2)CC1 | ΔF508-CFTR (Homo sapiens, UniProt P13569, DEL508-508) | yes |
| CCN(C1CCN(c2cc(C(=O)O)nc3c2c(C(C)C)nn3-c2ccc(F)cc2)CC1)C1COC1 | ΔF508-CFTR (Homo sapiens, UniProt P13569, DEL508-508) | yes |
| COC1CN(C2CCN(c3cc(C(=O)O)nc4c3c(C3CCC3)nn4-c3ccc(F)cc3)CC2)C1 | ΔF508-CFTR (Homo sapiens, UniProt P13569, DEL508-508) | no |
| O=C(O)c1cc(N2CCN(C3CCC3)CC2)c2c(C3CCC3)nn(-c3ccccc3)c2n1 | ΔF508-CFTR (Homo sapiens, UniProt P13569, DEL508-508) | yes |
| CC(C)c1nn(-c2cc(F)cc(F)c2)c2nc(C(=O)O)cc(-c3ccc(N(C)C4CCOCC4)cc3)c12 | ΔF508-CFTR (Homo sapiens, UniProt P13569, DEL508-508) | yes |
| CC(C)c1nn(-c2cccc(N(C)C)c2)c2nc(C(=O)O)cc(-c3ccc(N4CCC(C#N)CC4)cc3)c12 | ΔF508-CFTR (Homo sapiens, UniProt P13569, DEL508-508) | yes |
| O=C(O)c1cc(-c2ccc(N3CCOCC3)cc2)c2c(C3CCC3)nn(-c3cccc(F)c3)c2n1 | ΔF508-CFTR (Homo sapiens, UniProt P13569, DEL508-508) | yes |
| CC(C)c1nn(-c2cccc(C(F)(F)F)c2)c2nc(C(=O)O)cc(-c3ccc(N4CCC(C#N)CC4)cc3)c12 | ΔF508-CFTR (Homo sapiens, UniProt P13569, DEL508-508) | yes |
| Cc1nn(-c2ccccc2)c2nc(C(=O)O)cc(N3CCC(C(=O)N(C)C)CC3)c12 | ΔF508-CFTR (Homo sapiens, UniProt P13569, DEL508-508) | no |
| CC(C)c1nn(-c2cccc(N3CCOCC3)c2)c2nc(C(=O)O)cc(-c3ccc(N(C)C4CCOCC4)nc3)c12 | ΔF508-CFTR (Homo sapiens, UniProt P13569, DEL508-508) | yes |
| CCN(C1CCN(c2cc(C(=O)O)nc3c2c(C2CCC2)nn3-c2ccccc2)CC1)C1COC1 | ΔF508-CFTR (Homo sapiens, UniProt P13569, DEL508-508) | yes |
